assay: Disposition after single oral dose, humans (normal subjects); assay type: in vivo, human; conditions: human, plasma; normal subjects, 10 mg/body oral
Property Label: Tmax (h)
Supply the numeric figure in h, leaving out any unit text.

Recorded Tmax (compound CCCCCCCCCCCCCCCCCCCCCCCC(=O)NC(COC1OC(CO)C(O)C(O)C1O)[C@H](O)C(O)CCCCC (stereo in doubt) [compound 31] ): 26.3

* * *

experiment: Disposition after single oral dose, humans (normal subjects); type: in vivo, human; conditions: human, blood; normal subjects, 30 mg/body oral
Property Label: AUC(0-inf) (ng·h/mL)
Give a bare numeral; the unit ng·h/mL is implied.

Entry CCCCCCCCCCCCCCCCCCCCCCCC(=O)NC(COC1OC(CO)C(O)C(O)C1O)[C@H](O)C(O)CCCCC (stereo in doubt) [compound 31] , AUC(0-inf) reported as 795
